- Test system: 171881-019-R-J1-PDC tumor spheroids, viability;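 also: spheroids exposed to compounds for 7 days; 100% = DMSO vehicle control viability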
- testDetails: Anticancer human tumor 171881-019-R-J1-PDC patient-derived invasive breast carcinoma cell line growth inhibition [GQUAD]
- appliedConditions: second compound 0.0316 µM; first compound 3.16 µM; stronger effect = lower value; spheroids with HUVEC and MSC
parameterMeasured: viability, T/C (%)
Answer with a number only, understood to be in %.

-- ask viability, T/C lookup needed for CCCS(=O)(=O)Nc1ccc(F)c(C(=O)c2c[nH]c3ncc(-c4ccc(Cl)cc4)cc23)c1F + Cc1[nH]c2ccc(F)cc2c1-c1nc2c3cccnc3c3ncccc3c2[nH]1 , thanks.
-- reply 99

-- ask Field entry: Cc1cccc(N(C)C(=O)C2C(O)CCN2c2nc(C)cc(C(F)(F)F)c2C#N)c1 (stereo not given) + Cc1[nH]c2ccc(F)cc2c1-c1nc2c3cccnc3c3ncccc3c2[nH]1
-- reply 100

-- ask Another compound to look at: C#Cc1c(F)ccc2cc(O)cc(-c3ncc4c(N5CC6CCC(C5)N6)nc(OCC56CCCN5CC(F)C6)nc4c3F)c12 (stereo not given) + CN(C)c1ccc(Nc2c3ccc(NC(=O)CCN4CCCC4)cc3nc3cc(NC(=O)CCN4CCCC4)ccc23)cc1
-- reply 25.2

-- ask Another compound to look at: CC(C)n1c(=O)n(C)c2cnc3cc(F)c(-c4ccc(OCCCN5CCCCC5)nc4)cc3c21 + CN(C)c1ccc(Nc2c3ccc(NC(=O)CCN4CCCC4)cc3nc3cc(NC(=O)CCN4CCCC4)ccc23)cc1
-- reply 40.4

-- ask Would you mind doing CC1COCCN1c1cc(C2(S(C)(=N)=O)CC2)nc(-c2ccnc3[nH]ccc23)n1 (stereo not given) + CN(C)c1ccc(Nc2c3ccc(NC(=O)CCN4CCCC4)cc3nc3cc(NC(=O)CCN4CCCC4)ccc23)cc1 as well?
-- reply 15.8

-- ask Again, but for O=C(c1cc(Cc2n[nH]c(=O)c3ccccc23)ccc1F)N1CCN(C(=O)C2CC2)CC1 + CN(C)c1ccc(Nc2c3ccc(NC(=O)CCN4CCCC4)cc3nc3cc(NC(=O)CCN4CCCC4)ccc23)cc1
-- reply 90.7

-- ask CC(=O)O[C@H]1C(=O)[C@@]2(C)[C@H]([C@H](OC(=O)c3ccccc3)[C@]3(O)C[C@H](OC(=O)[C@H](O)[C@@H](NC(=O)c4ccccc4)c4ccccc4)C(C)=C1C3(C)C)[C@]1(OC(C)=O)CO[C@@H]1C[C@@H]2O + CN(C)c1ccc(Nc2c3ccc(NC(=O)CCN4CCCC4)cc3nc3cc(NC(=O)CCN4CCCC4)ccc23)cc1 ?
-- reply 27.4

-- ask Same question, C#Cc1c(F)ccc2cc(O)cc(-c3ncc4c(N5CC6CCC(C5)N6)nc(OCC56CCCN5CC(F)C6)nc4c3F)c12 (stereo not given) + Cc1[nH]c2ccc(F)cc2c1-c1nc2c3cccnc3c3ncccc3c2[nH]1 this time
-- reply 24.6

-- ask Try this compound next: COc1ccc([C@@H](O)c2cc(-c3ncnc4cc(N5CCOCC5)ccc34)c(F)cc2Cl)nn1 + Cc1[nH]c2ccc(F)cc2c1-c1nc2c3cccnc3c3ncccc3c2[nH]1
-- reply 14.7

-- ask And the next one, COc1cccc2c1C(=O)c1c(O)c3c(c(O)c1C2=O)CC(O)(C(=O)CO)CC3OC1CC(N)C(O)C(C)O1 (stereo not given) + CN(C)c1ccc(Nc2c3ccc(NC(=O)CCN4CCCC4)cc3nc3cc(NC(=O)CCN4CCCC4)ccc23)cc1 ?
-- reply 0.2
